All values here come from PubChem BioAssay (NCI).

// growth inhibition lookup, one value per entry
experiment: NCI Yeast Anticancer Drug Screen. Data for the CLN2oe strain (AID 163);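 further: 0% = growth of vehicle-only control cultures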; conditions: S. cerevisiae CLN2oe strain, at 1.2 µM, active compounds read high
About 79,000 compounds went through this panel and 15% of them were active in at least one assay; those are over-represented in the sample as a whole.
# value in %; strip the unit string

Solved cases (3 shown):
O=[N+]([O-])c1cc2no[n+]([O-])c2cc1N1CCCCC1; 27
COCCOC(=O)CCn1cc(F)c(=O)[nH]c1=O; 0
Cc1ccc(NC(=O)/C(Cl)=C(\Cl)C(=O)O)cc1C; 3

Next:
Problem: # get_value(readout='growth inhibition', item= "CCCCCCCCCCNC(=O)OCC" )
Solution: 0

###

test: NCI Yeast Anticancer Drug Screen. Data for the bub3 strain (AID 167); conditions: S. cerevisiae bub3 mutant strain, at 33.0 µM, active compounds read high
About 79,000 compounds went through this panel and 15% of them were active in at least one assay; those are over-represented in the sample as a whole.
Where growth inhibition equals or exceeds 40%, the correct label is yes (1); where it does not, the label is no (0).

Please review the entries below; each comes with its answer.
CCOC(=O)c1cc(-c2ccc(Cl)cc2)c([N+](=O)[O-])n1C; yes (1)
CC(C)/C(Cl)=N\OC(=O)Nc1cccc(Cl)c1; no (0)
O=C(N=Nc1cc(Cl)ccc1Cl)NNc1cc(Cl)ccc1Cl; no (0)
COc1ccc(/C(C)=N/OC(=O)c2c(-c3ccccc3Cl)noc2C)cc1CN1CCOCC1; no (0)

Problem: Exam item: decide whether the reported growth inhibition for "c1ccc2c(c1)sc1cc3ccncc3cc12" is at least 40%.
Solution: no (0)

Problem: Has CCCCCCCCCCCCCC[N+](C)(CC(=O)[O-])Cc1ccccc1 (configuration not stated) a recorded growth inhibition greater than or equal to 40%?
Solution: yes (1)

Problem: Is the recorded value of growth inhibition equal to or greater than 40% for this compound? C/C(=N\O)C1CC2C=C(C#N)C1N(Cc1ccccc1)C2 (configuration not stated)
Solution: no (0)

###

We begin with a simple list: items and their reported growth inhibition.
assay: NCI Yeast Anticancer Drug Screen. Data for the mgt1 strain (AID 153); conditions: S. cerevisiae mgt1 mutant growth inhibition; at 33.0 µM; active compounds read high
This is part of a sample that, as a whole, favours compounds with a hit. Of some 79,000 tested, about 15% had one in any assay.
Express your answer in %, writing the number without its unit.

The following molecules have reported results that may help.
C=CCC1=C(C)C(OC(=O)/C=C/c2ccccc2)CC1=O (stereo not given); 2
CCCS(=O)(=O)Nc1ccc(Nc2c3ccccc3nc3ccccc23)c(OC)c1; -10
CCC(C)COC(=O)c1ccc(N=Cc2ccc(C=Nc3ccc(C(=O)OCC(C)CC)cc3)cc2)cc1 (stereo not given); -6

Problem: growth inhibition lookup needed for "C[C@H](CCC(=O)NN)[C@H]1CC[C@H]2[C@@H]3CC[C@@H]4C[C@H](O)CC[C@]4(C)[C@H]3CC[C@]12C" , thanks.
Solution: -1

Problem: Record request: growth inhibition value, item "Cc1[nH]c2ccccc2c1C(c1ccc(N)cc1)c1c(C)[nH]c2ccccc12"
Solution: 0

###

Let's look at some molecules and their measured growth inhibition.
assay: NCI Yeast Anticancer Drug Screen. Data for the rad50EPP+ strain (AID 151);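 further: 0% = growth of vehicle-treated control cultures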; details: S. cerevisiae rad50 mutant strain, at 3.7 µM, active compounds read high
This is part of a sample that, as a whole, favours compounds with a hit. Of some 79,000 tested, about 15% had one in any assay.
Numbers only here, please. The scale is %.

Problem: Endpoint output: growth inhibition of "COc1ccc(/C(C)=N/OC(=O)c2c(-c3ccccc3Cl)noc2C)cc1CN1CCOCC1" . Value?
Solution: -39

Problem: Entry "Cc1c(C2=C(Br)C(=O)N(C)C2=O)c(=O)n(C)c(=O)n1C" has what growth inhibition?
Solution: -2

Problem: # input molecule: "O=c1c2ccccc2ncn1COCc1ccccc1" ; wanted: its growth inhibition
Solution: -30

Problem: growth inhibition for "Cc1ccc(S/N=C\c2ccccc2O)cc1" ?
Solution: 3

Problem: Given the entry "NC(N)=N/N=C\c1c2ccccc2cc2ccccc12" , report its measured growth inhibition.
Solution: -20

Problem: Quick check: growth inhibition of "COc1ccc(-c2cn(-c3ccc(I)cc3)c3ncnc(N)c23)cc1" ?
Solution: 1

Problem: Tell me the measured growth inhibition of COc1cc(C2SCC(=O)N2c2nnc(C(F)(F)F)s2)cc(OC)c1OC (stereo not given) , please.
Solution: -2

Problem: What does the data say about its growth inhibition? Entry: "O=c1ssc2ncccc12"
Solution: 6

Problem: What does the data say about its growth inhibition? Entry: COC(=O)C1=C(C)NC(C)=C(C(=O)OCCCN2CCC(c3ccccc3)(c3ccccc3)CC2)C1c1cccc([N+](=O)[O-])c1 (stereo not given)
Solution: 86

Problem: // growth inhibition lookup, key: "COC(=O)c1cc(-c2ccc(C)cc2)[nH]c(=O)c1C#N"
Solution: -4

Problem: Could you share which growth inhibition value was measured for O=C(O)C1OC1(c1cccc(Cl)c1)c1ccccc1Cl (stereo not given) ?
Solution: 9

Problem: Given the molecule "N#Cc1c(N)[nH]c2ccc(Sc3ccccc3)cc12" , what is its reported growth inhibition?
Solution: 6

Problem: Entry "Cc1cc(O)cc(O)c1N=Nc1ccc([N+](=O)[O-])cc1" has what growth inhibition?
Solution: 12

Problem: Would you mind telling me what growth inhibition value was observed for "COc1cc2c(cc1[N+](=O)[O-])C(=O)C(Br)(Br)CCC2" ?
Solution: 73

Problem: Record request: growth inhibition value, item "c1ccc(-c2ccnc3c2ccc2c(-c4ccccc4)ccnc23)cc1"
Solution: -4

Problem: Data request, read-out growth inhibition, for "COc1ccc2ccc3ccccc3c2c1C=O"
Solution: 2

###

assay: NCI Yeast Anticancer Drug Screen. Data for the rad18 strain (AID 177); conditions: S. cerevisiae rad18 mutant growth inhibition; at 1.2 µM; active compounds read high
This is part of a sample that, as a whole, favours compounds with a hit. Of some 79,000 tested, about 15% had one in any assay.
testReadout: growth inhibition (%)
Kindly provide the numeric value in % only, without the unit symbol.

Cc1ccc2ccc(O)cc2c1; -21
CC[n+]1ccc2c(C)c3[nH]c4ccc(O)cc4c3c(C)c2c1; -23

// next entry
Problem: GET /values?readout=growth inhibition&item= COc1cc(C2c3cc4c(cc3OC(Nc3ccccc3)C2C)OCO4)cc(OC)c1O (stereo not drawn)
Solution: 0

###

# growth inhibition values compiled below
test: NCI Yeast Anticancer Drug Screen. Data for the rad50 strain (AID 155);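 further: 0% = growth of vehicle-only cultures of the same strain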; settings: S. cerevisiae rad50 strain growth inhibition; at 11.0 µM; active compounds read high
About 79,000 compounds went through this panel and 15% of them were active in at least one assay; those are over-represented in the sample as a whole.
# value in %; strip the unit string

Example entries and their recorded answers appear below.
c1ccc2c(c1)sc1cc3ccncc3cc12; 29
O=C1C=CC(=Nc2ccc3c(c2)Cc2cc(NC(=O)C(F)(F)F)ccc2-3)O1; 20
CC(=O)OC1CCC2(C)C(=CCC3C4CCC5(OC6CC(C)CN(C(C)=O)C6C5C)C(C)=C4C(=O)C32)C1 (centres undefined); 61

Let's switch to this compound now.
Problem: Param item = "CCCC/C=C/C(CC)(C(=O)OCC)C(=O)OCC" ; retrieve measured growth inhibition.
Solution: -3

###

assay: NCI Yeast Anticancer Drug Screen. Data for the cln2 rad14 strain (AID 165);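 further: 0% = growth equal to vehicle treated cultures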; details: S. cerevisiae cln2 rad14 strain, at 5.0 µM (retest, dose inferred, filed as 0.5), active compounds read high
This is part of a sample that, as a whole, favours compounds with a hit. Of some 79,000 tested, about 15% had one in any assay. Activity calls are given as the source filed them. No stated cut-off is given here; in the data, active means growth inhibition above about 70%; inactive means the rest.
testReadout: growth inhibition

A selection of reference data follows.
Clc1ccc(SC(/C=C/NNC2=NC(c3ccccc3)C(c3ccccc3)=NN2)c2ccccc2)cc1 (stereo unspecified); 7% (inactive)
O=C1c2ccccc2-c2n[nH]c3cccc1c23; 44% (inactive)
N#CSc1ccc(S(N)(=O)=O)cc1; 64% (inactive)
O=Cc1cccc2ccc3ccccc3c12; -52% (inactive)
CCOC(=O)c1cc(-c2ccc(Cl)cc2)c([N+](=O)[O-])n1C; 15% (inactive)

Consider now this further molecule.
Problem: Using the record for "O=C(/C=C/c1cccc(Br)c1)c1cccs1" , report its growth inhibition.
Solution: 11% (inactive)

###

assay: NCI Yeast Anticancer Drug Screen. Data for the bub3 strain (AID 167); conditions: S. cerevisiae bub3 mutant strain, at 3.7 µM, active compounds read high
This is part of a sample that, as a whole, favours compounds with a hit. Of some 79,000 tested, about 15% had one in any assay.
Listed next: entries and their corresponding growth inhibition.
Answer in %, number only, no unit symbol.

C(=C\c1ccccc1)/COc1ccccc1C(N1CCOCC1)n1nc2ccccc2n1 (stereo not given); -14

Problem: Can you share its growth inhibition? I mean this molecule: OC(COc1cccc2ccccc12)CN1CCOCC1 (stereo not given)
Solution: 25

Problem: Endpoint output: growth inhibition of "O=C(Cc1csc2[n+]1C(=O)/C(=C/c1ccc(Cl)cc1)S2)Nc1ccccc1" . Value?
Solution: -8

Problem: # get_value(readout='growth inhibition', item= CN1CCc2ccccc2C1Cc1ccccc1NC(=O)c1sc2ccccc2c1Cl (stereo not given) )
Solution: -22

Problem: Value lookup for growth inhibition; key = "Cc1ccc2ccc3cccc4ccc1c2c34"
Solution: 0

Problem: Looking for the measured growth inhibition of "O=C(Nc1ccc(Cl)cc1)OCC#CCCl" , can you help?
Solution: 3

Problem: Using the record for "CSc1nc(=S)[nH]c2c1c(C)nn2-c1ccccc1" , report its growth inhibition.
Solution: -6

Problem: Reported growth inhibition, molecule CCOC(=O)[C@H]1Nc2ccccc2C2c3ccccc3CC21 (stereo not given in full) : ____
Solution: 11

Problem: I am curious: what growth inhibition value has been reported for CC1C(NNc2ccccc2)Oc2cc3c(cc2C1c1ccccc1O)OCO3 (stereo not given) ?
Solution: 68

Problem: Report growth inhibition for O=C(OCCN1CCCCCC1)C(c1ccsc1)C1CCCCC1 (stereo not given) please.
Solution: 14

Problem: Suppose we examine the molecule CC(Br)C(=O)c1ccc2cc(Br)c3ccccc3c2c1 (stereo not given) ; what growth inhibition value has been reported?
Solution: -1

Problem: Which value of growth inhibition has been reported for "CCOC(=O)c1cc([N+](=O)[O-])cc([N+](=O)[O-])c1Sc1ncnc2nc[nH]c12" in the records?
Solution: -12

Problem: Fill in the blank: the reported growth inhibition of "CCOC(=O)c1cc(-c2ccc(Cl)cc2)c([N+](=O)[O-])n1C" is ____.
Solution: -29

Problem: Any idea what its growth inhibition is? The molecule is "O=C1c2cc([N+](=O)[O-])ccc2-c2cccc(F)c21"
Solution: -7

Problem: Entry "Cc1cc(I)ccc1N" : reported growth inhibition = ?
Solution: -7

Problem: # get_value(readout='growth inhibition', item= "CN1Cc2ccccc2/C=C\c2ccccc21" )
Solution: -1

Problem: I am curious: what growth inhibition value has been reported for "O=C([O][Sn]([O]C(=O)c1ccccc1)([c]1ccccc1)[c]1ccccc1)c1ccccc1" ?
Solution: 2

Problem: Can you share its growth inhibition? I mean this molecule: "NCCNc1ccc(NCCN)c2c1C(=O)c1c(O)ccc(O)c1C2=O"
Solution: 23

Problem: Request the reported growth inhibition associated with "Cc1cc(CO)c(O)c(CNCc2cc(C)cc(CO)c2O)c1"
Solution: -6

Problem: Data request, read-out growth inhibition, for CCCCN1C(=O)N(c2ccc(OCC)cc2)C2N(CCCC)C1C(C)(C)C2(C)C (stereo not given)
Solution: -7
